// reported photoluminescence quantum yield per item
- Assay: photoluminescence quantum yield (fraction); solvent given as SMILES
- Experimental setup: in ClCCl
Assay readout: photoluminescence quantum yield

> print(dat)
                            compound.smiles                    assay.readout  experimental.value
1  CCCCN1C(=O)c2ccc3c4ccc5c6c(cc(Br)c(c7ccc(c2c37)C1=O)c64)C(=O)N(CCCC)C5=O  photoluminescence quantum yield                0.92
2  c1ccc(N(c2ccccc2)c2ccc(N(c3ccccc3)c3ccc4ccc5c(N(c6ccccc6)c6ccc(N(c7ccccc7)c7ccccc7)cc6)ccc6ccc3c4c65)cc2)cc1  photoluminescence quantum yield                0.13
3  CCN(CC)c1ccc2cc(-c3ccc(-c4ccc(-c5cc6ccccc6oc5=O)cc4)cc3)c(=O)oc2c1  photoluminescence quantum yield                0.59

* * *

- Assay: photoluminescence quantum yield (fraction); solvent given as SMILES
- Experimental setup: in ClC(Cl)Cl
Doc: threshold 0.4 (exclusive). Items with photoluminescence quantum yield beneath it return YES; others return NO.

Molecule	Assigned class
F[B-]1(F)OC(c2cc3c4c(c2)CCCN4CCC3)=Cc2cccc[n+]21	NO
C[N+]1=c2ccc3c(c2C(C)(C)CC1)Oc1cc2c(cc1C=3c1ccccc1C(=O)O)C(c1ccccc1C(=O)O)=c1ccc3c(c1O2)C(C)(C)CC[N+]=3C	NO
C#CCn1c2ccccc2c2cc(/C=C/C3=[N+]4C(=C(c5ccc(I)cc5)c5c(C)c(Cl)c(/C=C/c6ccc7c(c6)c6ccccc6n7CC#C)n5[B-]4(F)F)C(C)=C3Cl)ccc21	NO
CCC1=C(C)C(=O)n2c1cc1c(C)c(CC(=O)O)c(C)n1c2=O	NO
CC(C)c1cccc(C(C)C)c1-n1c(=O)c2ccc3c4ccc5c(=O)n(-c6c(C(C)C)cccc6C(C)C)c(=O)c6cc7c(-c8ccccn8)nc8cc(c1=O)c2c3c8c7c4c56	YES
Cc1ccc(/C2=c3\cc/c(o3)=C(\c3ccc(C)cc3)c3ccc([nH]3)-c3ccc4n3[B-](F)(F)[N+]3=C(C=CC3=C4c3ccc[nH]3)c3ccc2[nH]3)cc1	YES
c1ccc2c(-c3cc(-c4nccs4)nc(-c4nccs4)c3)c3ccccc3cc2c1	YES
c1cc2ccc1CCCc1ccc(c3nsnc13)CCC2	NO
CC(=O)c1ccc(-c2nc3ccc(N(C)C)c(Cl)c3s2)cc1	NO
O=[N+]([O-])c1ccc(NCCNCc2c3ccccc3cc3ccccc23)c([N+](=O)[O-])c1	YES
c1ccc2c([SiH](c3c4ccccc4cc4ccccc34)c3c4ccccc4cc4ccccc34)c3ccccc3cc2c1	YES
CCOc1ccc2c(-c3nc(-c4cccc(Br)c4)no3)cc(=O)oc2c1	YES
CCNc1cc2c(cc1C)C(c1ccccc1C(=O)O)=C1CCCC(/C=C/C3=[N+](C)c4ccc5ccccc5c4C3(C)C)=C1O2	NO
CCCCC(CC)CN1C(=O)c2cccc3c(C#Cc4ccc(N(c5ccc(C#Cc6ccc7c8c(cccc68)C(=O)N(CC(CC)CCCC)C7=O)cc5)c5ccc(C#Cc6ccc7c8c(cccc68)C(=O)N(CC(CC)CCCC)C7=O)cc5)cc4)ccc(c23)C1=O (stereo not drawn)	YES
CCCN1c2ccccc2Sc2cc(/C=C\c3cc(=O)oc4c(O)c(O)ccc34)ccc21	YES
CCCCCCCN1C(=CC2=C([O-])C(=Cc3sc4ccccc4[n+]3CCCCCCC)C2=C(C#N)C#N)Sc2ccccc21	YES
CCOC(=O)c1ccccc1-c1c2ccc(=[N+](CC)CC)cc-2oc2c1c(=O)oc1cc3c(cc12)CCCN3C	YES
C(#Cc1ccc(C#Cc2ccccc2)cc1)c1ccccc1	NO
N#Cc1c(C#N)c2cc(Br)ccc2c2ccc(Br)cc12	YES
Cc1ccc(C2=C3C=CC4=[N+]3[P-](=O)(=O)n3c2ccc3-c2ccc([nH]2)/C(c2ccc(C)cc2)=c2/cc/c(o2)=C(\c2ccc(C)cc2)c2ccc4[nH]2)cc1	YES
CCC1=C(C)C2=C(c3c(C)cc(C)nc3-c3cccs3)c3c(C)c(CC)c(C)n3[B-](F)(F)[N+]2=C1C	NO
CCCCCCN1C(=O)c2cccc3c(-c4ccc(OC)s4)ccc(c23)C1=O	NO
c1ccc(-c2nc(-c3ccccc3)c(N(c3ccccc3)c3ccccc3)[se]2)cc1	YES
CN(C)c1ccc(-c2nc(-c3ccc(-n4c5ccccc5c5ccccc54)cc3)cc(-c3ccc(-n4c5ccccc5c5ccccc54)cc3)n2)cc1	YES
CCCCCCN1C(=O)c2cccc3c(-c4sc(-c5ccc6c7c(cccc57)C(=O)N(CCCCCC)C6=O)c5c4OCCO5)ccc(c23)C1=O	YES
N=c1oc2cccc3c4c(-c5ccccc5)oc5cccc(c(c1-c1ccccc1)c23)c54	YES
CCCCCCCCCCCCOc1ccc(C2=C3C(=O)N(CC(OCC)OCC)C(c4ccc(OCCCCCCCCCCCC)c(OCCCCCCCCCCCC)c4)=C3C(=O)N2CC(OCC)OCC)cc1OCCCCCCCCCCCC	NO
